Biological target: interaction between VCAM-1 and VLA-4 (Homo sapiens, UniProt P05556+P13612)
Construct: supplied in their natural form as surface molecules on human U937 cells; the partner hVCAM-1(1-3)-IgG was made in house in transfected COS cells (ATCC CRL1651) and used as culture supernatant
Sequence (P13612 34-1032): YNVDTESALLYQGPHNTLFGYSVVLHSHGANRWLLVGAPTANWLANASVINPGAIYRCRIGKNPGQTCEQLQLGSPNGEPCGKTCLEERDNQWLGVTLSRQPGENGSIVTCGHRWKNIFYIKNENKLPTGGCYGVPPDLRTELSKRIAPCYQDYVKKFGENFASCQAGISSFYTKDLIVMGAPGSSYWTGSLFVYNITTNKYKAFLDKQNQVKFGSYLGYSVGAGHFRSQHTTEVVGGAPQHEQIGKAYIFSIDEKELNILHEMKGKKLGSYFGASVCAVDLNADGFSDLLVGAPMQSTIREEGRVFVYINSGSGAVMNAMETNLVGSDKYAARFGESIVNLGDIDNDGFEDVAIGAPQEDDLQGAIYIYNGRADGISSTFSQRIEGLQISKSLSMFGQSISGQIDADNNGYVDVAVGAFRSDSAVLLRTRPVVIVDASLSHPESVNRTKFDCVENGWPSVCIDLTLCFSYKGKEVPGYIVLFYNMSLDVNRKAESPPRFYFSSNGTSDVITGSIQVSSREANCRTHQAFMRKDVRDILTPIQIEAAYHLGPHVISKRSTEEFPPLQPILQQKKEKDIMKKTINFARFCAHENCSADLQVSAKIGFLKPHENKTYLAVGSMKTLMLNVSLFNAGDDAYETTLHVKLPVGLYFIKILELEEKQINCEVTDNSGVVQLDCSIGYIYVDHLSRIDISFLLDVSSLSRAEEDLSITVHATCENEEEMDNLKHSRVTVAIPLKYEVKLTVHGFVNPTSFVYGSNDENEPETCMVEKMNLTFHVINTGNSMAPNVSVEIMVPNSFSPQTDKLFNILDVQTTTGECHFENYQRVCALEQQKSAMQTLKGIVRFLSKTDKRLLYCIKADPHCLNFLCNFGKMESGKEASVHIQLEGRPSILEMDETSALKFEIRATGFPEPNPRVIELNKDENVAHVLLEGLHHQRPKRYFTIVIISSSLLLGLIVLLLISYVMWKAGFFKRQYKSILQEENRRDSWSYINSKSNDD
Sequence (P05556 21-798): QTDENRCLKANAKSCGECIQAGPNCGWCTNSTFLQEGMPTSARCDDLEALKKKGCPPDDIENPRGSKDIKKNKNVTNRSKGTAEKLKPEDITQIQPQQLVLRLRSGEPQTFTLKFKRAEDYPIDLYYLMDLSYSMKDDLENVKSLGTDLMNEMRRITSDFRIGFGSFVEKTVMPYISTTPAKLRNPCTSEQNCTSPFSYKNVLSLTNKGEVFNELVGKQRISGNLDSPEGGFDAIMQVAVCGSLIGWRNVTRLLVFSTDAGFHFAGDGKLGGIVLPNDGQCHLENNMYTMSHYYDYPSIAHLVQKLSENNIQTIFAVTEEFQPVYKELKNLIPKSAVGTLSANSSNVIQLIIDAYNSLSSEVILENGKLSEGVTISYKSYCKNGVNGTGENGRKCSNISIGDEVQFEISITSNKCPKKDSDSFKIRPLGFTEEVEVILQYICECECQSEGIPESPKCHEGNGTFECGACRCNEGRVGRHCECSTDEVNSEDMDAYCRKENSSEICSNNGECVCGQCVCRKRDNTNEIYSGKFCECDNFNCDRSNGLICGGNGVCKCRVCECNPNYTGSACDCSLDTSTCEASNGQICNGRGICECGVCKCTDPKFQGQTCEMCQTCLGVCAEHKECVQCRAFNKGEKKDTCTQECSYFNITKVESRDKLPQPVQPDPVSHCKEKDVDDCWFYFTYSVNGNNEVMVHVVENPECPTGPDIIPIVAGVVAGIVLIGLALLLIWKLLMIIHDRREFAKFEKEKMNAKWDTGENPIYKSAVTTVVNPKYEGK
Experiment: U937/VCAM-1 cell adhesion test (adhesion of U937 cells to hVCAM-1(1-3)-IgG)
Settings: inhibition of adhesion of human U937 cells (ATCC CRL 1593) to hVCAM-1(1-3)-IgG
Where a name gives a salt, the structure may show the parent alone.
measured_metric: IC50 (nM)

CC(C)C[C@@H](C(=O)N[C@@H](CC(=O)O)c1ccccc1)N1C(=O)N(Cc2ccc(NC(=O)Nc3ccccc3)cc2)C2(CCCCC2)C1=O [Example 2] | 4.5
COc1ccc([C@H](CC(=O)O)NC(=O)[C@H](CC(C)C)N2C(=O)N(Cc3ccc(NC(=O)Nc4ccccc4C)cc3)C3(CCCCC3)C2=O)cc1OC [Example 31] | 0.8
COc1cc(CN2C(=O)N([C@@H](CC(C)C)C(=O)N[C@@H](CC(=O)O)c3ccc(OC)c(OC)c3)C(=O)C23CCCCC3)ccc1NC(=O)Nc1ccccc1C [Example 38] | 1.6

a = COc1ccc([C@H](CC(=O)O)NC(=O)[C@H](CC2CC2)N2C(=O)N(Cc3ccc(NC(=O)Nc4ccccc4C)cc3)C3(CCCCC3)C2=O)c(OC)c1 [Example 41, sodium salt]
b = Cc1ccccc1NC(=O)Nc1ccc(CN2C(=O)N([C@@H](CC(C)C)C(=O)N[C@@H](CC(=O)O)c3ccc4c(c3)OCCO4)C(=O)C23CCCCC3)cc1 [Example 35, sodium salt]
Ask: Please choose the item with the lower IC50 value from this pair: a and b Bench note: the answer is the label of the chosen record.
Reply: a

a = COc1ccc([C@H](CC(=O)O)NC(=O)[C@H](CC(C)C)N2C(=O)N(Cc3ccc(NC(=O)Nc4ccccc4C)cc3)C3(CCCCC3)C2=O)c(OC)c1 [Example 28]
b = Cc1ccccc1NC(=O)Nc1ccc(CN2C(=O)N([C@@H](CC(C)C)C(=O)N[C@@H](CC(=O)O)c3ccccc3)C(=O)C23CCCCC3)cc1 [Example 8]
Ask: Between the entries labelled a and b , which has a larger IC50 value on record? Bench note: the answer is the label of the chosen record.
Reply: b
(b: 3.2 nM, a: 2.1 nM)

----------
Molecular target: interaction between VCAM-1 and VLA-4 (Homo sapiens, UniProt P05556+P13612)
Construct: supplied in their natural form as surface molecules on human U937 cells; the partner hVCAM-1(1-3)-IgG was made in house in transfected COS cells (ATCC CRL1651) and used as culture supernatant
Assay: U937/VCAM-1 cell adhesion test (adhesion of U937 cells to hVCAM-1(1-3)-IgG)
Conditions: inhibition of adhesion of human U937 cells (ATCC CRL 1593) to hVCAM-1(1-3)-IgG
Where a name gives a salt, the structure may show the parent alone.
measured_metric: IC50 (nM)

Observe how each entry below is paired with its result.
CC(C)C[C@@H](C(=O)N[C@@H](CC(=O)O)c1ccccc1)N1C(=O)N(Cc2ccc(NC(=O)Nc3ccccc3)cc2)C2(CCCCC2)C1=O [Example 1] | 3.2
Cc1ccccc1NC(=O)Nc1ccc(CN2C(=O)N([C@@H](CC(C)C)C(=O)N[C@H](C)CC(=O)O)C(=O)C23CCCCC3)cc1 [Example 9] | 2.2
COc1ccc([C@H](CC(=O)O)NC(=O)[C@H](CC(C)C)N2C(=O)N(Cc3ccc(NC(=O)Nc4ccccc4)cc3)C3(CCCCC3)C2=O)cc1 [Example 17] | 1.9

I = COc1ccc([C@H](CC(=O)O)NC(=O)[C@H](CC(C)C)N2C(=O)N(Cc3ccc(NC(=O)Nc4ccccc4)cc3)C3(CCCCC3)C2=O)c(OC)c1 [Example 18]
II = COc1ccc([C@H](CC(=O)O)NC(=O)[C@H](CC2CC2)N2C(=O)N(Cc3ccc(NC(=O)Nc4ccccc4C)cc3)C3(CCCCC3)C2=O)cc1OC
III = CC(C)C[C@H](CC(=O)O)NC(=O)[C@H](CC(C)C)N1C(=O)N(Cc2ccc(NC(=O)Nc3ccccc3)cc2)C2(CCCCC2)C1=O
IV = COc1ccc([C@H](CC(=O)O)NC(=O)[C@H](CC(C)C)N2C(=O)N(Cc3ccc(NC(=O)Nc4ccccc4C)cc3)C3(CCCCC3)C2=O)cc1OC [Example 33, sodium salt]
Ask: Arrange the 4 entries by IC50 so the values rise. When ranking, write the labels in the order the request describes.
Reply: II, IV, I, III
(II: 0.8 nM, IV: 1.3 nM, I: 2.4 nM, III: 85.4 nM)
